Target: T1, Biotin-huCGRPaSA (human, not fully specified; biotin (position not given))
T1 construct: exact construct ('aSA') not explained; also called Biotin CGRPaSA; full-length (1-37) CGRP
T1 peptide: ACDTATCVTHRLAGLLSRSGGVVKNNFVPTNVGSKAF
Experiment: ELISA, supernatant; relative to chimeric C245
experimentalReadout: Relative binding activity, % (%)

[[record]]
binder = "hu166 (antibody, V domains shown, 3E5 HC-2/2B8 LC2-2) VH: QVQLVQSGAEVKKPGASVKVSCKASGYTFTDYNMHWVRQAPGQRLEWMGYISPYNGGTAYNQKFKFRVTLTVDTSSSTAYMELSSLRSEDTAVYYCAREGLGGYWGQGTLVTVSS VL: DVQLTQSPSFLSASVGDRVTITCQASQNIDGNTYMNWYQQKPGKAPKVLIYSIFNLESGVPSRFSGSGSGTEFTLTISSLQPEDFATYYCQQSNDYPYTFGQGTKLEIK"
experimentalreadout = "Relative binding activity, %"
recordednumber = 19

[[record]]
binder = "hu106 (antibody, V domains shown, 2B8 HC1-1/1A2 LC2-2) VH: QVQLVQSGAEVKKPGASVKVSCKASGYTFTDYNMHWVRQAPGQGLEWMGNIYPYNGGTVYNQKFNNRVTLTVDTSSSTAYMELSRLRSDDTAVYYCAREGLGGYWGQGTLVTVSS VL: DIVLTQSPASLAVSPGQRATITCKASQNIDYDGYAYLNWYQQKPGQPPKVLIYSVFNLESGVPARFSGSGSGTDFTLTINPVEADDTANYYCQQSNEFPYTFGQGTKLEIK"
experimentalreadout = "Relative binding activity, %"
recordednumber = 38

[[record]]
binder = "hu211 (antibody, V domains shown, 3H10 HC-2/1A2 LC2-3) VH: QVQLVQSGAEVKKPGASVKVSCKASGYTFTDYNMHWVRQAPGQGLEWMGYIYPYNGHTVYNQKFRNRVTLTVDTSSSTAYMELRSLRSDDTAVYYCAREGLGGYWGQGTLVTVSS VL: EIVLTQSPATLSLSPGERATLSCKASQNIDYDGYAYLNWYQQKPGQAPRVLIYSVFNLESGIPARFSGSGSGTDFTLTISSLEPEDFAVYYCQQSNEFPYTFGQGTKLEIK"
experimentalreadout = "Relative binding activity, %"
recordednumber = 54

[[record]]
binder = "hu74 (antibody, V domains shown, 1F5 HC-4/2B8 LC2-1) VH: QVQLVQSGSELKKPGASVKVSCKASGYTFTDFNMHWVRQAPGQGLEWMGYIYPYNGDVVYNQNFTNRFVLSVDSSSSTAYLQISSLKAEDTAVYYCAREGLGGYWGQGTLVTVSS VL: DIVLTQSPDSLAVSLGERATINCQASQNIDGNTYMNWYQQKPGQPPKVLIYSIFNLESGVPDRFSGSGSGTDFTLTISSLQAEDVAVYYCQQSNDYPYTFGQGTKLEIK"
experimentalreadout = "Relative binding activity, %"
recordednumber = 112

[[record]]
binder = "hu220 (antibody, V domains shown, 3H10 HC-2/3H10 LC2-1) VH: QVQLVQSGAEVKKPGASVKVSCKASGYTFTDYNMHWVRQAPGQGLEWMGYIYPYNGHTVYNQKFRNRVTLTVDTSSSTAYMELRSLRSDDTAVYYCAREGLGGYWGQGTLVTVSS VL: DIVLTQSPDSLAVSLGERATINCKASQNIDYGGYSYMNWYQQKPGQPPKVLIYSVFNLESGVPDRFSGSGSGTDFTLTISSLQAEDVAVYYCQQSNEAPYTFGQGTKLEIK"
experimentalreadout = "Relative binding activity, %"
recordednumber = 83

[[record]]
binder = "hu60 (antibody, V domains shown, 1F5 HC-3/1F5 LC1-4) VH: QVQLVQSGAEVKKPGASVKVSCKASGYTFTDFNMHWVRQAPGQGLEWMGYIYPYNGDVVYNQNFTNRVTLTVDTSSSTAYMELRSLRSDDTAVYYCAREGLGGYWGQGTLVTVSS VL: DIVLTQSPDSLAVSLGERATINCKASQNIDFDGYAYMNWYQHKPGQPPKVLIYSVFNLESGVPDRFSGSGSGTDFTLTISSLQAEDVAVYYCQQSHEVPYTFGQGTKLEIK"
experimentalreadout = "Relative binding activity, %"
recordednumber = 11

[[record]]
binder = "hu83 (antibody, V domains shown, 1F5 HC-5/1F5 LC1-1) VH: QVQLVQSGAEVKKPGASVKVSCKASGYTFIDFNMHWVRQAPGQRLEWMGYIYPYNADVVYNQDFTNRVTLTVDTSSSTAYMELSSLRSEDTAVYYCAREGLGGYWGQGTLVTVSS VL: EIVLTQSPATLSLSPGERATLSCKASQNIDFDGYAYMNWYQQKPGQAPRVLIYSVFNLESGIPARFSGSGSGTDFTLTISSLEPEDFAVYYCQQSHEVPYTFGQGTKLEIK"
experimentalreadout = "Relative binding activity, %"
recordednumber = 102

[[record]]
binder = "hu157 (antibody, V domains shown, 3E5 HC-2/1A2 LC2-1) VH: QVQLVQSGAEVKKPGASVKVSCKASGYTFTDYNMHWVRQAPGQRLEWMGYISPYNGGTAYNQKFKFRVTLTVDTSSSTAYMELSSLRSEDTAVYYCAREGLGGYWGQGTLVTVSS VL: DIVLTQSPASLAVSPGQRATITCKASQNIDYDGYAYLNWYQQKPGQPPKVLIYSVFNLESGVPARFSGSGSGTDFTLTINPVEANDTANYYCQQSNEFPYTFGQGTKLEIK"
experimentalreadout = "Relative binding activity, %"
recordednumber = 15

[[record]]
binder = "hu198 (antibody, V domains shown, 3H10 HC-1/1A2 LC2-3) VH: QVQLVQSGAEVKKPGASVKVSCKASGYTFTDYNMHWVRQAPGQGLEWMGYIYPYNGHTVYNQKFRNRVTMTVDTSSSTAYMELRSLRSDDTAVYYCAKEGLGGYWGQGTLVTVSS VL: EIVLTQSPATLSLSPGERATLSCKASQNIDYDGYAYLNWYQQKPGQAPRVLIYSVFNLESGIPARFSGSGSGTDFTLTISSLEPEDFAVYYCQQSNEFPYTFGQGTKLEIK"
experimentalreadout = "Relative binding activity, %"
recordednumber = 39

[[record]]
binder = "hu71 (antibody, V domains shown, 1F5 HC-4/1F5 LC1-2) VH: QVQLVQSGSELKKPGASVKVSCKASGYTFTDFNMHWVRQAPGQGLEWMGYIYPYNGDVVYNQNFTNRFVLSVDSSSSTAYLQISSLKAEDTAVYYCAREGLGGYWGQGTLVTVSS VL: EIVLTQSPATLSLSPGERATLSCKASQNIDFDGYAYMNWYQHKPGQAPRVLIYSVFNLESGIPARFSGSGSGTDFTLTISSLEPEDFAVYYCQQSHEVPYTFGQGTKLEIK"
experimentalreadout = "Relative binding activity, %"
recordednumber = 120

